Tested on: NV in replicon harboring cells (HG23 cells)
Protocol Description: Cell-based assay: virus replication in NV replicon harboring cells (HG23 cells), qRT-PCR
Parameters: species or system norovirus (NV)
Measurement Context: Table 2, carbamate prodrugs; HG23 cells, 48 h; read-out: EC50
Observable: pEC50
pEC50 field: float, defined as -log10 of concentration (mol/L).

Indicate the recorded pEC50 value for this compound: COC(=O)C(NC(=O)OC([C@H](C[C@@H]1CCNC1=O)NC(=O)[C@H](CC1CCCCC1)NC(=O)OCc1cccc(Cl)c1)S(=O)(=O)O)C(C)C (stereo partly drawn) 7.40

Indicate the recorded pEC50 value for this compound: COC(=O)C(C)NC(=O)OC([C@H](C[C@@H]1CCNC1=O)NC(=O)[C@H](CC1CCCCC1)NC(=O)OCc1cccc(Cl)c1)S(=O)(=O)O (stereo partly drawn) 7.60

Indicate the recorded pEC50 value for this compound: COC(=O)CNC(=O)OC([C@H](C[C@@H]1CCNC1=O)NC(=O)[C@H](CC(C)C)NC(=O)OCc1ccccc1)S(=O)(=O)O (stereo partly drawn) 6.40

Indicate the recorded pEC50 value for this compound: COC(=O)C(C)NC(=O)OC([C@H](C[C@@H]1CCNC1=O)NC(=O)[C@H](CC1CCCCC1)NC(=O)OCc1ccccc1)S(=O)(=O)O (stereo partly drawn) 6.70

Indicate the recorded pEC50 value for this compound: COC(=O)C(NC(=O)OC([C@H](C[C@@H]1CCNC1=O)NC(=O)[C@H](CC(C)C)NC(=O)OCc1ccccc1)S(=O)(=O)O)C(C)C (stereo partly drawn) 6.40

Indicate the recorded pEC50 value for this compound: COC(=O)C(C)NC(=O)OC([C@H](C[C@@H]1CCNC1=O)NC(=O)[C@H](CC(C)C)NC(=O)OCc1ccccc1)S(=O)(=O)O (stereo partly drawn) 6.52
